Tested on: Respiratory Syncytial Virus
Assay text: In vitro screening for activity against RSV (tetrazolium-based colorimetric assay, protection against viral cytopathology)
Type: cell-based
Test settings: Table 1; RSV in HeLa cells, MTT, seven days after infection; pEC50 = -log of EC50 in molar units
From the text: The percent protection against cytopathology caused by viruses (antiviral activity or EC50) achieved by tested compounds and their cytotoxicity (CC50) are both calculated from dose-response curves. […] Automated tetrazolium-based colorimetric assays were used for determination of EC50 and CC50 of test compounds. […] Finally, the absorbances were read in an eight-channel computer-controlled photometer (Multiskan MCC, Flow Laboratories) at two wavelengths (540 and 690 nm). […]
Measured parameter: Activity

Give the measured Activity for Cc1ccc(O)c(Cn2c(N)nc3ccc(CNc4ccccc4C(C)C)cc32)n1
7.8

---

System: Respiratory Syncytial Virus
Assay text: In vitro screening for activity against RSV (tetrazolium-based colorimetric assay, protection against viral cytopathology)
Type: cell-based
Test settings: Table 1; RSV in HeLa cells, MTT, seven days after infection; pEC50 = -log of EC50 in molar units
Mark True only for Activity values smaller than 8; exact matches and larger values are False.

| Molecule | Assay target | Label class |
| --- | --- | --- |
| CC(=O)O.COc1ccccc1NCc1ccc2nc(N)n(Cc3nc(C)ccc3O)c2c1 [Compound 7] | Respiratory Syncytial Virus | False |
| Cc1ccc(O)c(Cn2c(N)nc3ccc(CNc4ccc(C(N)=O)cc4)cc32)n1 [Compound 85] | Respiratory Syncytial Virus | False |
| Cc1ccc(O)c(Cn2c(N)nc3ccc(CNc4ccccc4CCO)cc32)n1 [Compound 81] | Respiratory Syncytial Virus | False |
| Cc1ccc(O)c(Cn2c(N)nc3ccc(CNc4cccc(Cl)c4)cc32)n1 [Compound 5] | Respiratory Syncytial Virus | False |
| C#Cc1cccc(NCc2ccc3nc(N)n(Cc4nc(C)ccc4O)c3c2)c1 [Compound 6] | Respiratory Syncytial Virus | False |
| CC(=O)O.Cc1ccc(O)c(Cn2c(N)nc3ccc(CNc4ccccc4-c4ccccc4)cc32)n1 [Compound 58] | Respiratory Syncytial Virus | True |

Determine if Cc1cccc(NCc2ccc3nc(N)n(Cc4nc(C)ccc4O)c3c2)c1 [Compound 1] shows Activity strictly lower than 8.
False

Determine if Cc1ccc(O)c(Cn2c(N)nc3ccc(CNc4ccc(C)c(F)c4)cc32)n1 [Compound 60] shows Activity strictly lower than 8.
True

Determine if Cc1ccc(O)c(Cn2c(N)nc3ccc(CNc4ccc(C#N)cc4)cc32)n1 [Compound 13] shows Activity strictly lower than 8.
False

Determine if CC(=O)c1ccccc1NCc1ccc2nc(N)n(Cc3nc(C)ccc3O)c2c1 [Compound 69] shows Activity strictly lower than 8.
True

Determine if Cc1ccc(O)c(Cn2c(N)nc3ccc(CNc4ccc(Br)c(C)c4)cc32)n1 [Compound 56] shows Activity strictly lower than 8.
True

Determine if C#Cc1ccc(CCO)c(NCc2ccc3nc(N)n(Cc4nc(C)ccc4O)c3c2)c1 [Compound 92] shows Activity strictly lower than 8.
False

Determine if Cc1ccc(O)c(Cn2c(N)nc3ccc(CNc4cc(Br)cc(C(F)(F)F)c4)cc32)n1 [Compound 37] shows Activity strictly lower than 8.
True

Determine if Cc1ccc(O)c(Cn2c(N)nc3ccc(CNc4cc(C#N)ccc4CCO)cc32)n1 [Compound 89] shows Activity strictly lower than 8.
False

Determine if Cc1ccc(O)c(Cn2c(N)nc3ccc(CNc4ccc5c(c4)CCC5)cc32)n1 [Compound 36] shows Activity strictly lower than 8.
True

---

Mark Yes only for melting point values smaller than 200 °C; exact matches and larger values are No.

Worked cases, answers included:
| Compound string | Label class |
| --- | --- |
| Cc1ccc(O)c(Cn2c(N)nc3ccc(Cn4c(=O)n(C5CC5)c5ccncc54)cc32)n1 | No |
| Nc1nc2cc(CO)ccc2n1Cc1cccc2cccnc12 | No |
| Cc1ccc(CCCO)c(NCc2ccc3nc(N)n(Cc4nc(C)ccc4O)c3c2)c1 | No |
| Cc1ccc(O)c(Cn2c(N)nc3ccc(CN(CCN4CCOCC4)c4ccccc4CCO)cc32)n1 | Yes |
| Cc1cccc(N(CCC(=O)O)Cc2ccc3nc(N)n(Cc4nc(C)ccc4O)c3c2)c1 | Yes |
| Cc1cccc(N(CCO)Cc2ccc3nc(N)n(Cc4nc(C)ccc4O)c3c2)c1 | No |
| Cc1ccc(O)c(Cn2cnc3cc(N)ccc32)n1 | No |
| CC(=O)O.Cc1ccc(O)c(Cn2c(N)nc3ccc(CNc4ccccc4C)cc32)n1 | Yes |

Determine if Cc1ccc(O)c(Cn2cnc3ccc(N)cc32)n1 shows melting point strictly lower than 200 °C.
No

Determine if Cc1ccc(O)c(Cn2c(N)nc3ccc(CN(CCCCO)c4cccc(Br)c4)cc32)n1 shows melting point strictly lower than 200 °C.
Yes

---

Tested on: Respiratory Syncytial Virus
Assay text: In vitro screening for activity against RSV (tetrazolium-based colorimetric assay, protection against viral cytopathology)
Format: cell-based
Test settings: Table 1; RSV in HeLa cells, MTT, seven days after infection; pEC50 = -log of EC50 in molar units
Mark YES only for Activity values smaller than 7; exact matches and larger values are NO.

Worked cases, answers included:
| Compound | Assay target | Label class |
| --- | --- | --- |
| Cc1ccc(O)c(Cn2c(N)nc3ccc(CNc4cccc(C)c4CO)cc32)n1 [Compound 87] | Respiratory Syncytial Virus | NO |
| Cc1ccc(O)c(Cn2c(N)nc3ccc(CNc4ccccc4C(N)=O)cc32)n1 [Compound 39] | Respiratory Syncytial Virus | NO |
| Cc1ccc(O)c(Cn2c(N)nc3ccc(CNc4cc(C(=O)O)cc(C(F)(F)F)c4)cc32)n1 [Compound 78] | Respiratory Syncytial Virus | YES |
| Cc1ccc(O)c(Cn2c(N)nc3ccc(CNc4ccc(Br)c(C(F)(F)F)c4)cc32)n1 [Compound 62] | Respiratory Syncytial Virus | NO |
| Cc1ccc(O)c(Cn2c(N)nc3ccc(CNc4ccccc4F)cc32)n1 [Compound 40] | Respiratory Syncytial Virus | NO |

API: the following record is the query input.
Determine if Cc1ccc(O)c(Cn2c(N)nc3ccc(CNc4ccc(Br)c(F)c4)cc32)n1 [Compound 63] shows Activity strictly lower than 7.
NO

---

Quick reference: Activity of the listed items.
Tested on: Respiratory Syncytial Virus
Assay text: In vitro screening for activity against RSV (tetrazolium-based colorimetric assay, protection against viral cytopathology)
Format: cell-based
Test settings: Table 1; RSV in HeLa cells, MTT, seven days after infection; pEC50 = -log of EC50 in molar units

Look over these answered cases.
| Compound string | Measured parameter | Test value |
| --- | --- | --- |
| COc1cc(NCc2ccc3nc(N)n(Cc4nc(C)ccc4O)c3c2)cc(OC)c1 | Activity | 7.7 |
| CCOC(=O)c1cccc(NCc2ccc3nc(N)n(Cc4nc(C)ccc4O)c3c2)c1 | Activity | 7.3 |
| Cc1ccc(O)c(Cn2c(N)nc3ccc(CNc4ccccc4C(F)(F)F)cc32)n1 | Activity | 7.6 |

Now look at this entry.
Give the measured Activity for Cc1ccc(O)c(Cn2c(N)nc3ccc(CNc4ccc(F)c(F)c4)cc32)n1
7.4

---

Tested on: Respiratory Syncytial Virus
Assay text: In vitro screening for activity against RSV (tetrazolium-based colorimetric assay, protection against viral cytopathology)
Format: cell-based
Test settings: Table 1; RSV in HeLa cells, MTT, seven days after infection; pEC50 = -log of EC50 in molar units
Quick reference: Activity of the listed items.

| Compound string | Activity |
| --- | --- |
| Cc1ccc(O)c(Cn2c(N)nc3ccc(CNc4ccccc4CO)cc32)n1 | 8.4 |
| CCc1cc(Br)ccc1NCc1ccc2nc(N)n(Cc3nc(C)ccc3O)c2c1 | 7.5 |
| CC(=O)Nc1ccc(NCc2ccc3nc(N)n(Cc4nc(C)ccc4O)c3c2)cc1 | 7.5 |
| CCc1cccc(NCc2ccc3nc(N)n(Cc4nc(C)ccc4O)c3c2)c1 | 8.0 |

Give the measured Activity for Cc1ccc(O)c(Cn2c(N)nc3ccc(CNc4cccc(Cc5ccccc5)c4)cc32)n1
6.4

Give the measured Activity for Cc1ccc(O)c(Cn2c(N)nc3ccc(CNc4ccccc4)cc32)n1
7.9

---

Test system: Respiratory Syncytial Virus
Assay text: In vitro screening for activity against RSV (tetrazolium-based colorimetric assay, protection against viral cytopathology)
Format: cell-based
Test settings: Table 1; RSV in HeLa cells, MTT, seven days after infection; pEC50 = -log of EC50 in molar units
Measured parameter: Activity

Look over these answered cases.
| Compound string | Activity |
| --- | --- |
| Cc1ccc(O)c(Cn2c(N)nc3ccc(CNc4ccccc4Br)cc32)n1 | 8.0 |
| Cc1ccc(O)c(Cn2c(N)nc3ccc(CNc4cccc(CO)c4)cc32)n1 | 7.9 |
| CCOc1cccc(NCc2ccc3nc(N)n(Cc4nc(C)ccc4O)c3c2)c1 | 7.9 |
| Cc1ccc(O)c(Cn2c(N)nc3ccc(CNc4cccc(F)c4)cc32)n1 | 7.9 |
| COc1ccc(NCc2ccc3nc(N)n(Cc4nc(C)ccc4O)c3c2)cc1F | 7.8 |
| Cc1ccc(O)c(Cn2c(N)nc3ccc(CNc4cccc(SC(F)(F)F)c4)cc32)n1 | 7.8 |
| Cc1ccc(O)c(Cn2c(N)nc3ccc(CNc4cc(OCC(F)(F)F)cc(OCC(F)(F)F)c4)cc32)n1 | 6.2 |
| Cc1ccc(O)c(Cn2c(N)nc3ccc(CNc4cccc(C)c4C)cc32)n1 | 8.0 |

Give the measured Activity for CC(=O)c1cccc(NCc2ccc3nc(N)n(Cc4nc(C)ccc4O)c3c2)c1
7.6

Give the measured Activity for CCc1cccc(CC)c1NCc1ccc2nc(N)n(Cc3nc(C)ccc3O)c2c1
8.1

Give the measured Activity for Cc1ccc(O)c(Cn2c(N)nc3ccc(CNc4cc(C(F)(F)F)cc(C(F)(F)F)c4)cc32)n1
7.1
